# study.target: CBP (Homo sapiens, UniProt Q92793)
# Construct: endogenous in cells; host or cells: 22Rv1
# Sequence (Q92793 whole entry): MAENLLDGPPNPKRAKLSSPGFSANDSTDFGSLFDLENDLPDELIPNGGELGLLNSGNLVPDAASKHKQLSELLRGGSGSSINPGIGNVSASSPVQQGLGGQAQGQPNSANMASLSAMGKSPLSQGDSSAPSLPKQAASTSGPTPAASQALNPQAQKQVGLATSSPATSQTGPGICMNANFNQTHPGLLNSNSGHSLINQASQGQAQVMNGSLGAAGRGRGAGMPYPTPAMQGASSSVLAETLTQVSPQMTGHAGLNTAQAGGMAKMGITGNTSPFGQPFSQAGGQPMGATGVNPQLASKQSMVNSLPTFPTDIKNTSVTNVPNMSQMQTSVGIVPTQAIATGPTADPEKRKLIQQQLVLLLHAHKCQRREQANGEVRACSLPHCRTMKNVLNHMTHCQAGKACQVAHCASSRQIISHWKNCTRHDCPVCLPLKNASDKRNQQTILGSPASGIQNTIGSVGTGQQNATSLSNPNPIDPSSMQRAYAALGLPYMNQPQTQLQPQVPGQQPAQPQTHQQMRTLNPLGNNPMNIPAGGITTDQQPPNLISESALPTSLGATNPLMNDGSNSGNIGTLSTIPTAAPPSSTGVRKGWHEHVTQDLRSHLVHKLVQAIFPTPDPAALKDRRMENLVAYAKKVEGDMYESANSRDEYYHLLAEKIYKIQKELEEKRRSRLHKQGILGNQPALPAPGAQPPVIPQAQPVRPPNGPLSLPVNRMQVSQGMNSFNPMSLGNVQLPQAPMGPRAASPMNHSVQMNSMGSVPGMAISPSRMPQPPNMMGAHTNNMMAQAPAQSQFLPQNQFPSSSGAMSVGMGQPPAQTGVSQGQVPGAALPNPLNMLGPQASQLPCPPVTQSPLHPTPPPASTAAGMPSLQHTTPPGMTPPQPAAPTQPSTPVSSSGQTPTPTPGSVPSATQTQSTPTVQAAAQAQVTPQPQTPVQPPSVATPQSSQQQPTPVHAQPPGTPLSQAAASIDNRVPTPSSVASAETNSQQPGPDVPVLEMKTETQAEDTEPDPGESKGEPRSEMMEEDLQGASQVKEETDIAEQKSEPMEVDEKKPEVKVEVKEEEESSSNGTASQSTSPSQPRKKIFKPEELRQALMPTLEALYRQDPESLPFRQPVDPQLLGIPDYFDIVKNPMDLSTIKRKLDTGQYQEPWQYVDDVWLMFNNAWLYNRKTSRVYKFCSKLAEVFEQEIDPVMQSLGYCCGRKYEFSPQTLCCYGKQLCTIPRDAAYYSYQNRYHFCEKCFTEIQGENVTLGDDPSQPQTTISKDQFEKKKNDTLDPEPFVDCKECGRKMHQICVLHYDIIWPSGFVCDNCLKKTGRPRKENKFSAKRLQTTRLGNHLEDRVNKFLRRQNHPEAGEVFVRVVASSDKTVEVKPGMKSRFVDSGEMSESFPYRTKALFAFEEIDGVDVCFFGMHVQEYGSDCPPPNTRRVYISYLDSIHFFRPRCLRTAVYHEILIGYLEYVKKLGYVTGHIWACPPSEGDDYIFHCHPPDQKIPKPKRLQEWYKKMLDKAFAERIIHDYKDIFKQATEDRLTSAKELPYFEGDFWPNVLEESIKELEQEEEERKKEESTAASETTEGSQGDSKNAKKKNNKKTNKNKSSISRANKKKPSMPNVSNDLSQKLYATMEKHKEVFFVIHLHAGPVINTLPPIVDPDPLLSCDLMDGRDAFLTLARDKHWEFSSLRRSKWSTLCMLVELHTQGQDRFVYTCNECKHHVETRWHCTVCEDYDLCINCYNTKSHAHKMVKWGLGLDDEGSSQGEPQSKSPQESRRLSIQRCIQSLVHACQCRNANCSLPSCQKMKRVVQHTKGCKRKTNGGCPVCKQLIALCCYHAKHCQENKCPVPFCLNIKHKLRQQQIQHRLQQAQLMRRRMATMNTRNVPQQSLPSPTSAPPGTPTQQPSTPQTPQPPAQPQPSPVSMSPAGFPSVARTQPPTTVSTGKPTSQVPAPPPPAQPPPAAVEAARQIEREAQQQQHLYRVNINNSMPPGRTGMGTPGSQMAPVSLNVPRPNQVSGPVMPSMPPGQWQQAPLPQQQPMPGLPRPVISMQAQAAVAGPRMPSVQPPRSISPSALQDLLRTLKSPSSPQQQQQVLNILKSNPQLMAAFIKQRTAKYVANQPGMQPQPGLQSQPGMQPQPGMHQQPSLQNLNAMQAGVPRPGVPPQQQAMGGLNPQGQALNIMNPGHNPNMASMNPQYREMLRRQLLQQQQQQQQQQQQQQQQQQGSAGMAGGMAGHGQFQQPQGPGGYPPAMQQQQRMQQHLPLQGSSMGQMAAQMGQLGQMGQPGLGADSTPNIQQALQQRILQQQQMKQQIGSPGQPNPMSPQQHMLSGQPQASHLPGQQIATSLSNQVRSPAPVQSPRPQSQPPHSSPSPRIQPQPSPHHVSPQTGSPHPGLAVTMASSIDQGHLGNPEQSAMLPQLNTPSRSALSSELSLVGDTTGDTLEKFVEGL
# protocol.details: CBP degradation, western blot, 22Rv1
# Assay type: cell-based
# stated.conditions: 22Rv1, 5 h
recorded.metric: CBP Degradation DCmax

Example results:
- molecule: "CC(=O)N1CCc2c(c(N3CCCc4cc(-c5cnn(C)c5)c(C(F)F)cc43)nn2[C@H]2CC[C@H](C(=O)N3CCC4(CC3)COc3c4ccc4c3CN([C@H]3CCC(=O)NC3=O)C4=O)CC2)C1"
  CBP Degradation DCmax: "A (A (≥90%))"
- molecule: "CC(=O)N1CCc2c(c(N3CCCc4cc(-c5cnn(C)c5)c(C(F)F)cc43)nn2C2CCN(C(=O)CN3CCC4(CC3)COc3c4ccc4c3CN([C@H]3CCC(=O)NC3=O)C4=O)CC2)C1"
  CBP Degradation DCmax: "A (A (≥90%))"
- molecule: "CC(=O)N1CCc2c(c(N3CCCc4cc(-c5cnn(C)c5)c(C(F)F)cc43)nn2C2CCC(N3CCC4(CC3)COc3c4ccc4c3CN([C@H]3CCC(=O)NC3=O)C4=O)CC2)C1 (stereo partly drawn)"
  CBP Degradation DCmax: "A (A (≥90%))"
- molecule: "CC(=O)N1CCc2c(c(N3CCCc4cc(-c5cnn(C)c5)c(C(F)F)cc43)nn2[C@H]2CC[C@H](CN3CCC4(CC3)COc3c4ccc4c3CN([C@H]3CCC(=O)NC3=O)C4=O)CC2)C1"
  CBP Degradation DCmax: "A (A (≥90%))"
- molecule: "CC(=O)N1CCc2c(c(N3CCCc4cc(-c5cnn(C)c5)c(C(F)F)cc43)nn2C2CCN(CC(=O)N3CCC4(CC3)COc3c4ccc4c3CN([C@H]3CCC(=O)NC3=O)C4=O)CC2)C1"
  CBP Degradation DCmax: "A (A (≥90%))"

Pending molecule:
Item: CC(=O)N1CCc2c(c(N3CCCc4cc(-c5cnn(C)c5)c(C(F)F)cc43)nn2[C@H]2CC[C@@H](C(=O)N3CCC4(CC3)COc3c4ccc4c3CN([C@H]3CCC(=O)NC3=O)C4=O)CC2)C1 Test system: CBP (Homo sapiens, UniProt Q92793) Read-out: CBP Degradation DCmax Value: ?
A (A (≥90%))
